tested-on: Mth IMPDH ΔCBS (Mycolicibacterium thermoresistibile, UniProt G7CNL4, R236G)
test-summary: Inhibition constants (Ki) and mode of inhibition against Mth IMPDH ΔCBS with respect to IMP and NAD+
Assay type: biochemical, Mycobacterium thermoresistible
condition-summary: with respect to NAD+; constant saturating IMP (1 mM)
Experimental: The inhibition constant [Ki] with respect to both substrates IMP and NAD^+ was determined by assaying various concentrations of each inhibitor with five different concentrations of substrate and a fixed saturating concentration of the cosubstrate. The initial velocities at various inhibitor concentrations were determined based on the slope in the linear part of each reaction containing the inhibitor and the uninhibited reaction. […]
Each record here notes measured NAD αKi.

So what does the record say about NAD αKi for CC(Oc1ccc(-c2cn(C)cn2)cc1)C(=O)Nc1nc(-c2ccc(Br)cc2)c[nH]1 (centres unmarked) [Compound 31] ?
0.20 ± 0.01 µM

Thanks! And CC1(C)Cc2cccc(CO)c2O1 [Compound 19] ?
355 ± 47 µM

Thanks! And Cc1ccc(-c2nc(C(=O)O)cs2)cc1 [Compound 16] ?
525 ± 64 µM
